Biological target: KRAS G12C (Homo sapiens (Human), UniProt P01116, C118A/G12C)
Sequence (P01116 other isoform, or with tags, fused parts or gaps G12C/C118A): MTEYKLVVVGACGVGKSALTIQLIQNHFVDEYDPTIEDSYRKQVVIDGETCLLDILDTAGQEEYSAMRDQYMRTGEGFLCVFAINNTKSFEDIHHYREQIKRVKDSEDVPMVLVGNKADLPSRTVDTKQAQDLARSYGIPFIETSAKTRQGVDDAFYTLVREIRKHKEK
Experiment: 2 h coupled exchange assay
Assay type: biochemical
Conditions: Avg 2 h Coupled exchange IC50, 2 h compound pre-incubation, SOS-mediated nucleotide exchange
pIC50: −log10 of the molar value.
Result Type: pIC50

Below, 5 compounds whose answers are already recorded.
Compound	Test Value
C=CC(=O)N1CC2(CCN(c3nc4c(c(-c5c(C)ccc6[nH]ncc56)c3C#N)CC(C)(C)C4)C2C)C1 (centres unmarked) [Example 13-52]	7.37
C=CC(=O)N1CC2(CCN(c3nc4c(c(-c5c(C)ccc6cnn(C)c56)c3C)CCC(C)(C)C4)C2)C1 (single isomer, unassigned) [Example 2-21]	6.79
C=CC(=O)N1CC2(CCN(c3nc4c(c(-c5c(C)ccc6cnn(C)c56)c3C#N)CO[C@@H](C3CC3)C4)C2)C1 (single isomer, unassigned) [Example 13-119]	5.17
CN(C)C/C=C/C(=O)N1CC2(CCN(c3nc4c(c(-c5cc(O)cc6ccccc56)c3C#N)CCC3CC43)C2)C1 (centres unmarked) [Example 13-85]	6.50
C=CC(=O)N1CC2(CCN(c3nc(-c4cccc5cccc(C)c45)c4c(n3)N(C)CCO4)C2)C1 [Example 1-28]	5.53

P. C=CC(=O)N1CC2(CCN(c3nc4c(c(-c5cc(O)cc6ncccc56)c3C#N)C[C@H]3C[C@@H]4C3(C)C)C2)C1 [Example 2-42]
Q. C=CC(=O)N1CC2(CCN(c3cc4c(c(-c5c(C)ccc6[nH]ncc56)c3C#N)COCC4)C2)C1 [Example 2-95]
Q: Could you determine which record has the numerically smaller pIC50? Candidates: P and Q When you have decided, please share the label of that item.
Ans: Q

* * *

Biological target: KRAS G12C (Homo sapiens (Human), UniProt P01116, C118A/G12C)
Test: 2 h coupled exchange assay
Format: biochemical
Settings: Avg 2 h Coupled exchange IC50, 2 h compound pre-incubation, SOS-mediated nucleotide exchange
Result Type: IC50 (nM)

Below, 3 molecules whose answers are already recorded.
In [3]: df
Out[3]:
                                   molecule  result_type  test_value
0  C=CC(=O)N1CC2(CCN(c3nc4c(c(-c5c(C)ccc6[nH]ncc56)c3C)CCC(C)(C)C4)C2)C1 [Example 2-28]         IC50          67
1  C=CC(=O)N1CC2(CCN(c3nc4c(c(-c5c(N)cccc5F)c3C#N)COC(C)(C)C4)C2)C1         IC50         555
2  C=CC(=O)N1CC2(CCN(c3nc4c(c(-c5cc(O)cc(C)c5Cl)c3C)COC(C)(C)C4)C2)C1         IC50          94

I. C=CC(=O)N1CC2(CCN(c3cc4ccccc4c(-c4c(C)ccc5[nH]ncc45)c3C#N)C2)C1
II. C=CC(=O)N1CC2(CCN(c3nc4c(c(-c5ccccc5Cl)c3C#N)CC(C)(C)C4)C2)C1 [Example 13-23]
III. C=CC(=O)N1CC2(CCN(c3nc4c(c(-c5cnccc5C)c3C#N)C[C@H]3C[C@@H]4C3(C)C)C2)C1 [Example 13-109]
Q: Hey, quick one: sort these by IC50, largest value first please. Output the labels ranked as instructed.
Ans: III, II, I
(III: 1110 nM, II: 769 nM, I: 158 nM)
